- System: KM12
- METHOD DESCRIPTION: Growth inhibition of human KM12 cells after 48 hrs by sulforhodamine B assay
- Assay type: functional
- CONDITION NOTES: KM12, 48 h, read-out: LC50 (the source's name)
MEASURED QUANTITY: CC50 (µM)
# number only, unit µM dropped from output

Please report the recorded CC50 for Cc1cc(O)cc(-c2nn(CC#N)cc2-c2ccnc(-c3ccc(Oc4ccccc4)cc3)c2)c1 .
15.3

Give the measured CC50 of Cc1cc(O)cc(-c2nn(CC#N)cc2-c2ccnc(-c3ccc(N(C)C)cc3)c2)c1 .
29.2

Could you share which CC50 value was measured for COc1cc(C)cc(-c2nn(CC#N)cc2-c2ccnc(-c3ccc(N(C)C)cc3)c2)c1 ?
25.5
